- test.protocol: yeast display, Sf9 membrane polyspecificity reagent, FACS + sequencing; frameworks hold sequencing errors
parameter.measured: polyreactivity (PSR sort gate)

// known answers, use as guide
{"columns": ["sequence.entry", "polyreactivity (PSR sort gate)"],
 "data": [
  ["QVQHVESGGGLVQAGGSLRLSCAASGRIFVNYAMGWSRQAPGKERELVAAITYIDSGTYYADSVKGRFTISRDNAKNTVYFQRNSLKPEDTAVYYCAVRLNSDSNRKTQKYGYWGQGTQVTVSS", "low polyreactivity"],
  ["QVQLVESGGGLVQAGGSLRLSCAASGFIFRYYALGWYRQAPGKERELVAAIDYSGGSTNYADSVKGRFTISRDNAKNTVYLQMNSLKPEDNAVYYCNAEYTWHRGYDYWGQGTQVTVSS", "low polyreactivity"],
  ["QVQLQESGGGQVQAGGSLRLSCAASGYISTHYFMGWYRQAPGKDREFVAGISNGSITNYADSVKGRFTISRDNARNTVYLQMNSLKPEDTAVYYGAAYEWTYVRFGYWGQGTQVTVSG", "high polyreactivity"],
  ["QVQLVESGGGLVQAGGSLRLSCAASGSTFVSYALGWYRQAPGKERDLVAAISRSGGSTYYADSVKGRFTISRDNAKNTVYVQMNRLKPEDTAVFYCAADCRGPSKRNRDYWGQGTEVTVSS", "high polyreactivity"]
]}

Which polyreactivity (PSR sort gate) reading was recorded for the sequence QVQLVESGGGLVQAGGSLRLSCAASGSTFHPNGMGWYRQAPGKERELVAAIRRSGGSTYYADSVKGRFTISRDNAKNTVYLQMNSLKPEDTAVYYCAAKHYYYSPYVRYDPPPGYYWGQGTQVTVSS ?
high polyreactivity

Data request, read-out polyreactivity (PSR sort gate), for QVQLVESGGGLVQAGGSLRLSCAASGRTFRPNAMGWYRQAPGNERELVASITRRGGTTYYADSVKGGFTISRDNAKNTVYLHMNSLKPEDTAVYYCNAPPGYSSTRNGYWGQGTQVTVSS
high polyreactivity

So what's the measured polyreactivity (PSR sort gate) for this one? QVQLVESGGGLVQAGGRLRLSCAASGFTLWGYAMGWYRQAPGKERELVASMSWSGGGTNYADSVKGRFTISRDNAKNTVYLQMNSLKPEDPAVYYCAAQYYTVSRYYGVERKFGYWGQGSQVTVSS
high polyreactivity

----------
- test.protocol: yeast display, Sf9 membrane polyspecificity reagent, FACS + sequencing; frameworks hold sequencing errors

{"columns": ["sequence.entry", "polyreactivity (PSR sort gate)"],
 "data": [
  ["QVQLVESGGGLVQAGGSLRLSCAASGRILTSNAMGWYRQAPGKERELVAAISWSGGSTYYADSVKGSFTISRDNAKNTVYLQMNSLKPDDSAVYYCAAPFTTTFDYSGQGTQVTVSS", "low polyreactivity"],
  ["QVQLVESGGGLDHAGGSLRLSCAASGYTLTDYVMGWYRQAPGKQRELVAAIDWRDGTTYADSVKGRFTISRDNAKNTVYLQFNILKPEDTAVYFCGTDELLTSPRYPEYDYWGQGTQVTVSS", "low polyreactivity"],
  ["QVQLEESGGALVQAGGSLRLSCAASGNTFGPKAMGWYRQAPGKERELVASINIGGRTNYADSVKGRFTISRDNAKNSVYLQLKSLKPEDTAVYYCNAGSGVQVVWYNAYREYEYWGQGTQVTVSS", "low polyreactivity"],
  ["QVQLVESGGGLVQAGGSRRLSCAASGNTFTWYTMGWYRQAPAKERELVAVITSDGSTYYADSVKGRFTISRDNAKNTVYLQMNSLKPEDTAVYYCNALSADWYPEEDYWGQGTQVTVSS", "low polyreactivity"]
]}

----------
- test.protocol: yeast display, Sf9 membrane polyspecificity reagent, FACS + sequencing; frameworks hold sequencing errors
parameter.measured: polyreactivity (PSR sort gate)

Please review the following examples before continuing.
{"columns": ["sequence.entry", "polyreactivity (PSR sort gate)"],
 "data": [
  ["QVQLVESGGGLVQAGGSLRLSCAASGSIFWVYAMGWYRQAPGKERELVADISRSGGSTYYADSVKGRFTISRDNAKNTVYLQMNSLKPEDTAVYYCAAEYYGQVLFQPYVYQLMYYWGQGTQVTVSS", "low polyreactivity"],
  ["QDQLVESGGGLVQAGGSLSLSCAASGRTFTVYAMGWYRQAPGKERELVAAISGSSGSTDYADSVKGRFTISRDNAKNTVYLQMNSLKPEDTAVYYCAKASSATRYVQLRQDYDYWGQGTQVTVSS", "low polyreactivity"],
  ["QVQLVESGGGLVQAGGSLRLSCAASGRIFDYYDLGWYRQAPRKERELVAAITSSGTSTYYADSVKGRFTISRDNAKNTVYLQMNSLKPEDTAVYYCNARSIRPWGENGYWGQGTQVTVSS", "high polyreactivity"],
  ["QVQLVESGGGLVQAGGSLRLSCAASGSIFRYYAMGWYRQAPGKEREFVAAISASGGSTYYADSVKGRFTISRDNAKNTVYLQMNSLKPEDTAVYYCAARYSYRRPGGYPFGSWGQGTQVTVSS", "high polyreactivity"],
  ["QVQLVESGGGLFQAGGILRLSCAASGFIFSSYAMGLYRLAPGKERELVAAISRSGGRTYYADSVKGRFTISRDYAKNTVYLQMNSLKPEDTAVYYCAARWYGLYLQRYDYWGQGTQVTVSS", "high polyreactivity"]
]}

Data request, read-out polyreactivity (PSR sort gate), for QVQLVESGGGIVQAGGSLRLSCAASGSTFDSYAMGWYRQAPGKERELVATISWTGSSTYYADSVKGRFTISRDNAKNTVYLQMNSLKPADTAVYYCATDQYYEYDYWGQGTQVTVSS
low polyreactivity

Suppose we examine the sequence QVQLVESGGGLVQAGGSLRLSCAASGSTFYLYAMGWYRQAPGKEREFVAAISWSGGRTYYADSVKGRFTISRDNAKNTVYLQMNSLKPEDTAVYYCAARRRYTWQYTRYDMGYWGQGTQVTVSS ; what polyreactivity (PSR sort gate) value has been reported?
low polyreactivity

Entry QVQLVESGGGLLKAGGSLRLSCAASGFTVDGYGMGWYRQAPGKERELVAVITSGGSTKYADSVKGRYTISRDNAKITVYLQMKSLKPEDTAVYYCNVVGGRYLYSAYDYWGQGTQVTVSS has what polyreactivity (PSR sort gate)?
low polyreactivity

I'd like to know its polyreactivity (PSR sort gate). The sequence in question is QDQLVESGGGLVQAGGSLRLSCAASGFTFVRYAMVWYRQAPGKERELVAAISSSGGSTYYADSVKGRFTISRDNAKNTVYLQMNSLKPEDTAVYYCADGPFYRFTDGRYKSLDYCGQGTQVTVSS
high polyreactivity

Could you tell me which polyreactivity (PSR sort gate) is on file for QVQLVESGGGLVQAGGSLRLSCAASGRIFKRNTMGWYRQAPGKERELVAAITRSGGSTHYADSVKGRFTISRDNAKNTVYLQMNSLKPEDTAVYYCAVRAAAIDRLAQFDYWGQGTQVTVSS ?
low polyreactivity

Any idea what polyreactivity (PSR sort gate) was measured for QVQLVESGGGLLQAGGTLRLSCAASGFIFGRYAMGWYRQAPGKERELVADISWNGGSTYYADYVKGRFTISRDNAKNTVYLQMNSLKPEDTAVYYCAADYYWASFKYPYLRPYDYWGQGTQVTVSS ?
high polyreactivity

----------
- test.protocol: yeast display, Sf9 membrane polyspecificity reagent, FACS + sequencing; frameworks hold sequencing errors
parameter.measured: polyreactivity (PSR sort gate)

{"columns": ["sequence.entry", "readout.value"],
 "data": [
  ["QVQLVESGGGLVQAGGSLRLSCAASGIIFARYAMGWYRQAPGKERELVASINWTGGNTYADSVKGRFTISRDNAKNSVYLQMNSLNPEDTAVYYCARDFSPGSSDPNASISFDHWGQGTQVTVSS", "low polyreactivity"],
  ["QVQLVESGGGLVQAGGSLRISCAASGSNQDSYTMGWYRQAPGKERELVATISTSGGSTYYADSVKGRFTISRDNAKHTVYLQLNSLKPEDTAVYYCNADDPFGPHRYNSWGQGTQVTVSS", "low polyreactivity"],
  ["QVQLVESGGGLVQAGGSLRLSCAASDTPSSSMLMGWYRQAPGKERELVAAISGSDGTTYYADSVKVRFTISRDNAKNTVYLQMNSLKPEDTAVYYCAADDRVYSGYIKDDYWGQGTQVTVSS", "low polyreactivity"]
]}

----------
- test.protocol: yeast display, Sf9 membrane polyspecificity reagent, FACS + sequencing; frameworks hold sequencing errors
parameter.measured: polyreactivity (PSR sort gate)

Reference set (4 entries):
{"columns": ["sequence.entry", "polyreactivity (PSR sort gate)"],
 "data": [
  ["QVQLVESGGGLVQAAGRLRLSCAASGRIFQWNAMGWSRQAPGKERQLVATISSRGGSTYYADSVKGRFTISRDNEKITVYLQMNSLIPEDTAVYYCAARYYAKYRSYDYWGQGSQVTVSS", "high polyreactivity"],
  ["QVQLVESGGGLVQAGGSLRLSCAASGFIFVAYAMGWYRQAPGKERELVATIDSSGGTTYYADSVKGRFTISRDNAKNTVYLQMNSLKPEDTAVYYCNAPIYPYREFGRDYWGQGTQVTVSS", "low polyreactivity"],
  ["QVQLVESGGGLVQAGGSLRLSCAASGLTFNVYAMGWYRQAPGKERELVASITKRGGSTYYADSVKGRFTISRDNAKNTVYLQMNSLKPEDTAVYYCAADGLTGSKYRATGYYWGQGTQVTVSS", "high polyreactivity"],
  ["QVQLVESGGGLVQAGGSLRLSCAASGLTFGRYAMGWYRPAPGKERELVAAISSGGSTYYADSVKGRFTISRDNAKNTVYLQMNSLKPEDTAVYYCAADYVGWYFVSGRDYWGQGTQVTVSS", "low polyreactivity"]
]}

polyreactivity (PSR sort gate) for QVQLVESGGALVQAGGRLRLSCAASVYIQHKYAMGRYRQAPGKERDLVATISGGGGSTYYADSVKGRFTISRDNAKNTVYLQMNSLKPEDTSVYYCAKEYPWLPRSYEYWGQGTQVTVSS ?
low polyreactivity
